viscosity values by entry
conditions: 293.15 K; 101.33 kPa; Liquid
The figure you give is taken to be in mPa·s; do not add the unit.

A selection of reference data follows.
> print(dat)
                                   compound  number
1  CC(=O)[O-].CCn1cc[n+](C)c1 [1-ethyl-3-methylimidazolium acetate]  202.29
2  CCn1cc[n+](C)c1.CO[PH](=O)[O-] [1-ethyl-3-methylimidazolium methyl phosphonate]   285.8
3  CCn1cc[n+](C)c1.O=S(=O)([O-])C(F)(F)F [1-ethyl-3-methylimidazolium trifluoromethanesulfonate]   51.87

Any idea what viscosity was measured for CCn1cc[n+](C)c1.N#CN=C=[N-] [1-ethyl-3-methylimidazolium dicyanamide] ?
18.79

Any idea what viscosity was measured for CCn1cc[n+](C)c1.CS(=O)(=O)[O-] [1-ethyl-3-methylimidazolium methanesulfonate] ?
232.44

Any idea what viscosity was measured for CCn1cc[n+](C)c1.N#C[S-] [1-ethyl-3-methylimidazolium thiocyanate] ?
29.21

###

details: 358.15 K; 101.33 kPa; Liquid; Vibrating tube method
endpoint-name: mass density (kg/m3)
The figure you give is taken to be in kg/m3; do not add the unit.

A selection of reference data follows.
> print(dat)
                                   molecule  endpoint.name  scale.unit  number
1  CCn1cc[n+](C)c1.CO[PH](=O)[O-] [1-ethyl-3-methylimidazolium methyl phosphonate]   mass density       kg/m3  1170.9
2  CCn1cc[n+](C)c1.Cc1ccc(S(=O)(=O)[O-])cc1 [1-ethyl-3-methylimidazolium 4-methylbenzenesulfonate]   mass density       kg/m3  1188.5

Any idea what mass density was measured for CCn1cc[n+](C)c1.N#CN=C=[N-] [1-ethyl-3-methylimidazolium dicyanamide] ?
1065.4

Any idea what mass density was measured for CCn1cc[n+](C)c1.CS(=O)(=O)[O-] [1-ethyl-3-methylimidazolium methanesulfonate] ?
1202.8

###

log10 of viscosity values by entry
conditions: 278.15 K; 101.33 kPa; Liquid
Could you please treat all values as log10 of viscosity in mPa·s?

A selection of reference data follows.
> print(dat)
                                   compound       endpoint.name  number
1  CCn1cc[n+](C)c1.N#C[S-] [1-ethyl-3-methylimidazolium thiocyanate]  log10 of viscosity    1.74
2  CCn1cc[n+](C)c1.N#CN=C=[N-] [1-ethyl-3-methylimidazolium dicyanamide]  log10 of viscosity    1.51

Any idea what log10 of viscosity was measured for CCn1cc[n+](C)c1.CS(=O)(=O)[O-] [1-ethyl-3-methylimidazolium methanesulfonate] ?
2.91

Any idea what log10 of viscosity was measured for CCn1cc[n+](C)c1.CO[PH](=O)[O-] [1-ethyl-3-methylimidazolium methyl phosphonate] ?
2.96

Any idea what log10 of viscosity was measured for CC(=O)[O-].CCn1cc[n+](C)c1 [1-ethyl-3-methylimidazolium acetate] ?
2.86

Any idea what log10 of viscosity was measured for CCn1cc[n+](C)c1.O=S(=O)([O-])C(F)(F)F [1-ethyl-3-methylimidazolium trifluoromethanesulfonate] ?
2.00

###

settings: 348.15 K; 101.33 kPa; Liquid
endpoint-name: viscosity (mPa·s)
The figure you give is taken to be in mPa·s; do not add the unit.

A selection of reference data follows.
> print(dat)
                                   compound  scale.unit  number
1  CCn1cc[n+](C)c1.N#CN=C=[N-] [1-ethyl-3-methylimidazolium dicyanamide]       mPa·s   5.319
2  CCn1cc[n+](C)c1.CO[PH](=O)[O-] [1-ethyl-3-methylimidazolium methyl phosphonate]       mPa·s   24.05

Any idea what viscosity was measured for CCn1cc[n+](C)c1.N#C[S-] [1-ethyl-3-methylimidazolium thiocyanate] ?
7.076

Any idea what viscosity was measured for CCn1cc[n+](C)c1.O=S(=O)([O-])C(F)(F)F [1-ethyl-3-methylimidazolium trifluoromethanesulfonate] ?
10.88

###

conditions: 283.15 K; 101.33 kPa; Liquid
endpoint-name: log10(viscosity) (log10 of the value in mPa·s)
Could you please treat all values as log10 of viscosity in mPa·s?

A selection of reference data follows.
> print(dat)
                                   molecule     endpoint.name  number
1  CCn1cc[n+](C)c1.CS(=O)(=O)[O-] [1-ethyl-3-methylimidazolium methanesulfonate]  log10(viscosity)    2.70
2  CC(=O)[O-].CCn1cc[n+](C)c1 [1-ethyl-3-methylimidazolium acetate]  log10(viscosity)    2.65
3  CCn1cc[n+](C)c1.O=S(=O)([O-])C(F)(F)F [1-ethyl-3-methylimidazolium trifluoromethanesulfonate]  log10(viscosity)    1.90
4  CCn1cc[n+](C)c1.N#CN=C=[N-] [1-ethyl-3-methylimidazolium dicyanamide]  log10(viscosity)    1.43
5  CCn1cc[n+](C)c1.CO[PH](=O)[O-] [1-ethyl-3-methylimidazolium methyl phosphonate]  log10(viscosity)    2.78

Now look at this entry.
Any idea what log10(viscosity) was measured for CCn1cc[n+](C)c1.N#C[S-] [1-ethyl-3-methylimidazolium thiocyanate] ?
1.64

###

assay: refractive index (Na D-line) (dimensionless); conditions: 308.01 K; 101.33 kPa; Liquid; Standard Abbe refractometry
endpoint-name: refractive index
Output spec: single numeric token, no unit.

A selection of reference data follows.
> print(dat)
                                   compound   number
1  CCn1cc[n+](C)c1.CS(=O)(=O)[O-] [1-ethyl-3-methylimidazolium methanesulfonate]  1.49254
2  CC(=O)[O-].CCn1cc[n+](C)c1 [1-ethyl-3-methylimidazolium acetate]  1.49807
3  CCn1cc[n+](C)c1.COP(=O)([O-])OC [1-ethyl-3-methylimidazolium dimethylphosphate]  1.47909
4  CCn1cc[n+](C)c1.N#CN=C=[N-] [1-ethyl-3-methylimidazolium dicyanamide]  1.51112
5  CCn1cc[n+](C)c1.CO[PH](=O)[O-] [1-ethyl-3-methylimidazolium methyl phosphonate]  1.48982

Now look at this entry.
Any idea what refractive index was measured for CCn1cc[n+](C)c1.O=S(=O)([O-])C(F)(F)F [1-ethyl-3-methylimidazolium trifluoromethanesulfonate] ?
1.43025

###

settings: 293.15 K; 101.33 kPa; Liquid; Vibrating tube method
endpoint-name: mass density (kg/m3)
The figure you give is taken to be in kg/m3; do not add the unit.

> print(dat)
                                   compound  scale.unit  number
1  CCn1cc[n+](C)c1.N#CN=C=[N-] [1-ethyl-3-methylimidazolium dicyanamide]       kg/m3  1107.4
2  CCn1cc[n+](C)c1.CS(=O)(=O)[O-] [1-ethyl-3-methylimidazolium methanesulfonate]       kg/m3  1245.9
3  CCn1cc[n+](C)c1.CO[PH](=O)[O-] [1-ethyl-3-methylimidazolium methyl phosphonate]       kg/m3  1211.7

Any idea what mass density was measured for CC(=O)[O-].CCn1cc[n+](C)c1 [1-ethyl-3-methylimidazolium acetate] ?
1102.4

Any idea what mass density was measured for CCn1cc[n+](C)c1.N#C[S-] [1-ethyl-3-methylimidazolium thiocyanate] ?
1120.1

Any idea what mass density was measured for CCn1cc[n+](C)c1.O=S(=O)([O-])C(F)(F)F [1-ethyl-3-methylimidazolium trifluoromethanesulfonate] ?
1390.2

###

mass density values by entry
conditions: 318.15 K; 101.33 kPa; Liquid; Vibrating tube method
The figure you give is taken to be in kg/m3; do not add the unit.

> print(dat)
                                   compound  endpoint.name  scale.unit  number
1  CCn1cc[n+](C)c1.COP(=O)([O-])OC [1-ethyl-3-methylimidazolium dimethylphosphate]   mass density       kg/m3  1203.8
2  CC(=O)[O-].CCn1cc[n+](C)c1 [1-ethyl-3-methylimidazolium acetate]   mass density       kg/m3    1087
3  CCn1cc[n+](C)c1.Cc1ccc(S(=O)(=O)[O-])cc1 [1-ethyl-3-methylimidazolium 4-methylbenzenesulfonate]   mass density       kg/m3  1213.2
4  CCn1cc[n+](C)c1.CS(=O)(=O)[O-] [1-ethyl-3-methylimidazolium methanesulfonate]   mass density       kg/m3  1228.8
5  CCn1cc[n+](C)c1.CO[PH](=O)[O-] [1-ethyl-3-methylimidazolium methyl phosphonate]   mass density       kg/m3  1195.5

Any idea what mass density was measured for CCn1cc[n+](C)c1.N#CN=C=[N-] [1-ethyl-3-methylimidazolium dicyanamide] ?
1090.7

Any idea what mass density was measured for CCn1cc[n+](C)c1.N#C[S-] [1-ethyl-3-methylimidazolium thiocyanate] ?
1104.8

Any idea what mass density was measured for CCn1cc[n+](C)c1.O=S(=O)([O-])C(F)(F)F [1-ethyl-3-methylimidazolium trifluoromethanesulfonate] ?
1368.9

# credit: the NIST ThermoML archive (doi:10.1021/je200790q)
